# System: IL-6 production in MonoMac-6 cells
# assay_text: LPS-induced IL-6 production in MonoMac-6 cells (ELISA)
# Format: cell-based
# condition_parameters: Homo sapiens, MONO-MAC-6; LPS 250 ng/ml, 24 h
pIC50: −log10 of the molar value.
metric_name: pIC50

molecule | endpoint_result
CON=C1c2ccccc2-n2c1nc1ccccc1c2=O [Compound 1a] | 4.63

**Query** Sample O=c1c2ccccc2nc2n1-c1ccccc1C2=NOCc1ccc([N+](=O)[O-])cc1 [Compound 1h] — what was its pIC50?
**Result** ≤ 4.30

**Query** Sample O=c1c2ccccc2nc2n1-c1ccccc1C2=NOCc1c(F)c(F)c(F)c(F)c1F [Compound 1g] — what was its pIC50?
**Result** ≤ 4.30

**Query** Sample NC(=O)NN=C1c2ccccc2-n2c1nc1ccccc1c2=O [Compound 1o] — what was its pIC50?
**Result** 5.18

**Query** Sample NN=C1c2ccccc2-n2c1nc1ccccc1c2=O [Compound 1m] — what was its pIC50?
**Result** ≤ 4.30

**Query** Sample CC(=O)ON=C1c2ccccc2-n2c1nc1ccccc1c2=O [Compound 1j] — what was its pIC50?
**Result** 5.77

**Query** Sample N#CCON=C1c2ccccc2-n2c1nc1ccccc1c2=O [Compound 1e] — what was its pIC50?
**Result** ≤ 4.30

**Query** Sample O=c1c2ccccc2nc2n1-c1ccccc1C2=NOCc1ccccn1 [Compound 1i] — what was its pIC50?
**Result** ≤ 4.30

====

# System: NF-κB/AP-1 transcriptional activity in THP-1Blue cells
# assay_text: LPS-induced NF-κB/AP-1 alkaline phosphatase reporter assay in THP-1Blue cells
# Assay type: cell-based
# condition_parameters: Homo sapiens; LPS 250 ng/ml, 24 h
pIC50: −log10 of the molar value.
// reported pIC50 for each item listed

For orientation, consider the following solved cases.
chem_smiles | endpoint_result
NC(=O)NN=C1c2ccccc2-n2c1nc1ccccc1c2=O | 5.48
CC(=O)ON=C1c2ccccc2-n2c1nc1ccccc1c2=O | 6.10
O=c1c2ccccc2nc2n1-c1ccccc1C2=NOCc1ccc([N+](=O)[O-])cc1 | ≤ 4.30
N#CCON=C1c2ccccc2-n2c1nc1ccccc1c2=O | ≤ 4.30
NN=C1c2ccccc2-n2c1nc1ccccc1c2=O | ≤ 4.30

**Query** Sample O=c1c2ccccc2nc2n1-c1ccccc1C2=NOCc1ccccc1 — what was its pIC50?
**Result** ≤ 4.30

**Query** Sample CON=C1c2ccccc2-n2c1nc1ccccc1c2=O — what was its pIC50?
**Result** 4.68

**Query** Sample CC(C)(C)ON=C1c2ccccc2-n2c1nc1ccccc1c2=O — what was its pIC50?
**Result** ≤ 4.30

**Query** Sample O=c1c2ccccc2nc2n1-c1ccccc1C2=NOCc1ccccn1 — what was its pIC50?
**Result** ≤ 4.30

**Query** Sample CCON=C1c2ccccc2-n2c1nc1ccccc1c2=O — what was its pIC50?
**Result** ≤ 4.30

====

// reported pKd for each item listed
# assayed_system: JNK1 (Homo sapiens, UniProt P45983)
# Sequence (P45983 whole entry): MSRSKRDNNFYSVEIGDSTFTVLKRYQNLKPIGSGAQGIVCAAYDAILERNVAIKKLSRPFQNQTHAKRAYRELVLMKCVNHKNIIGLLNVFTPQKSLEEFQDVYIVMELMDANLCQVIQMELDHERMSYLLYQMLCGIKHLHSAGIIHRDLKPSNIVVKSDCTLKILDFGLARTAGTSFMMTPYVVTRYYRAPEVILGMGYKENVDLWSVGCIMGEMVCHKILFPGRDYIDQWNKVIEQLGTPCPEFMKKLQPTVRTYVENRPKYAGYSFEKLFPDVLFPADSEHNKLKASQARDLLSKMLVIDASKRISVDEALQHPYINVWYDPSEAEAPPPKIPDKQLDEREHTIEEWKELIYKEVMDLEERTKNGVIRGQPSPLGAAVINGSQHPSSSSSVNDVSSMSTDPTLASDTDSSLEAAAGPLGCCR
# assay_text: KINOMEscan ATP site-dependent binding assay, JNK1
# condition_parameters: mixture of E/Z isomers, read-out: Binding affinity JNK1 Kd
Convention used: pKd is expressed as -log10 of the molar concentration.

chem_smiles | pKd
CC(C)(C)ON=C1c2ccccc2-n2c1nc1ccccc1c2=O | 5.03
CON=C1c2ccccc2-n2c1nc1ccccc1c2=O | 5.51
C=CCON=C1c2ccccc2-n2c1nc1ccccc1c2=O | 5.44
CC(=O)ON=C1c2ccccc2-n2c1nc1ccccc1c2=O | 6.47
O=c1c2ccccc2nc2n1-c1ccccc1C2=NOCc1ccccn1 | 5.40

**Query** What is its pKd for JNK1 (Homo sapiens, UniProt P45983)? Entry: N#CCON=C1c2ccccc2-n2c1nc1ccccc1c2=O
**Result** 4.71

**Query** What is its pKd for JNK1 (Homo sapiens, UniProt P45983)? Entry: CCON=C1c2ccccc2-n2c1nc1ccccc1c2=O
**Result** 5.49

Cited source: paper PMC9510750
